# Tested on: 873145-292-R-J1-PDC complex spheroid viability;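 note: luminescence signal used as surrogate for viable cell content; spheroids exposed to compounds for 7 days before viability readout; 100% = DMSO vehicle control viability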
# test.description: Anticancer human tumor 873145-292-R-J1-PDC patient-derived renal clear cell carcinoma cell line growth inhibition [POLQ]
# conditions.used: second compound 0.316 µM; first compound 0.316 µM; stronger effect = lower value

compound	measured.target	viability, T/C, %
Nc1ccn(C2OC(CO)C(O)C2(F)F)c(=O)n1 (stereo not given) + COC1C(OC(N)=O)C(O)C(Oc2ccc3c(O)c(NC(=O)c4ccc(O)c(CC=C(C)C)c4)c(=O)oc3c2C)OC1(C)C	873145-292-R-J1-PDC complex spheroid viability	47.8
O=C(c1cc(Cc2n[nH]c(=O)c3ccccc23)ccc1F)N1CCN(C(=O)C2CC2)CC1 + Nc1ccc(C#CCN(C(=O)Cc2ncc(C(F)(F)F)cc2C(F)(F)F)c2ccc(F)cc2)nn1	873145-292-R-J1-PDC complex spheroid viability	114
COc1cc(C2c3cc4c(cc3C(OC3OC5COC(C)OC5C(O)C3O)C3COC(=O)C23)OCO4)cc(OC)c1O (stereo not given) + Cc1cccc(N(C)C(=O)C2C(O)CCN2c2nc(C)cc(C(F)(F)F)c2C#N)c1	873145-292-R-J1-PDC complex spheroid viability	78.5
C#Cc1c(F)ccc2cc(O)cc(-c3ncc4c(N5CC6CCC(C5)N6)nc(OCC56CCCN5CC(F)C6)nc4c3F)c12 (stereo not given) + Cc1cccc(N(C)C(=O)C2C(O)CCN2c2nc(C)cc(C(F)(F)F)c2C#N)c1	873145-292-R-J1-PDC complex spheroid viability	107
COc1cccc2c1C(=O)c1c(O)c3c(c(O)c1C2=O)CC(O)(C(=O)CO)CC3OC1CC(N)C(O)C(C)O1 (stereo not given) + COC1C(OC(N)=O)C(O)C(Oc2ccc3c(O)c(NC(=O)c4ccc(O)c(CC=C(C)C)c4)c(=O)oc3c2C)OC1(C)C	873145-292-R-J1-PDC complex spheroid viability	69.3
CNCc1ccc(-c2[nH]c3cc(F)cc4c3c2CCNC4=O)cc1 + Cc1cccc(N(C)C(=O)C2C(O)CCN2c2nc(C)cc(C(F)(F)F)c2C#N)c1	873145-292-R-J1-PDC complex spheroid viability	99
CC1COCCN1c1cc(C2(S(C)(=N)=O)CC2)nc(-c2ccnc3[nH]ccc23)n1 (stereo not given) + COC1C(OC(N)=O)C(O)C(Oc2ccc3c(O)c(NC(=O)c4ccc(O)c(CC=C(C)C)c4)c(=O)oc3c2C)OC1(C)C	873145-292-R-J1-PDC complex spheroid viability	90
COc1cc(C2c3cc4c(cc3C(OC3OC5COC(C)OC5C(O)C3O)C3COC(=O)C23)OCO4)cc(OC)c1O (stereo not given) + Nc1ccc(C#CCN(C(=O)Cc2ncc(C(F)(F)F)cc2C(F)(F)F)c2ccc(F)cc2)nn1	873145-292-R-J1-PDC complex spheroid viability	109
CCCS(=O)(=O)Nc1ccc(F)c(C(=O)c2c[nH]c3ncc(-c4ccc(Cl)cc4)cc23)c1F + COC1C(OC(N)=O)C(O)C(Oc2ccc3c(O)c(NC(=O)c4ccc(O)c(CC=C(C)C)c4)c(=O)oc3c2C)OC1(C)C	873145-292-R-J1-PDC complex spheroid viability	98.9
O=C(Nc1ccc(O)c(NS(=O)(=O)c2ccc(F)cc2)c1)c1ccc(-c2ccccc2)cc1 + Nc1ccc(C#CCN(C(=O)Cc2ncc(C(F)(F)F)cc2C(F)(F)F)c2ccc(F)cc2)nn1	873145-292-R-J1-PDC complex spheroid viability	114
